Provide the recorded CC50 at 72 h for the entries that follow.
assay: Cytotoxicity against MDBK cells assessed as growth inhibition after 3 days by MTS assay; assay type: cell-based, Bos taurus; settings: cattle
Give bare numbers, in µg/mL.

{"substance_smiles": "Fc1ccc(-c2cccc(-c3c(-c4ccc(F)cc4)nc4ccccn34)c2)cc1", "CC50 at 72 h / µg/mL": 5.4}
{"substance_smiles": "Fc1ccc(-c2nc3ccccn3c2-c2cccc(-c3ccncc3)c2)cc1", "CC50 at 72 h / µg/mL": 7}

Quick one: give me CC50 at 72 h for each item below, same order please.
1. Fc1ccc(-c2nc3ccccn3c2-c2cccc(-c3ccsc3)c2)cc1
2. COc1ccccc1-c1nc2ccc(-c3ccsc3)nn2c1-c1cccc(-c2ccccc2)c1

Data returned:
7
10.4

====

experiment: Cytotoxicity against MDBK cells assessed as growth inhibition after 3 days by MTS assay; type: cell-based, Bos taurus; details: cattle
recorded_metric: CC50 at 72 h

Hi! Can you tell me CC50 at 72 h for each of these molecules?
1. Fc1ccc(-c2nc3ccc(N4CCOCC4)nn3c2-c2ccc(-c3ccccc3)cc2)cc1
2. Fc1ccc(-c2nc3ccc(N4CCOCC4)cn3c2-c2cccc(-c3ccccc3)c2)cc1
3. c1ccc(-c2cccc(-c3cnc4ccc(-c5ccsc5)cn34)c2)cc1

Data returned:
["> 50 mg/L", "> 50 mg/L", "> 100 mg/L"]

====

assay: Cytotoxicity against human Huh5-2 cells assessed as growth inhibition after 3 days by MTS assay; type: cell-based, Huh-5-2
Criterion: CC50 at 72 h strictly under 60 µg/mL. Met: TRUE. Not met: FALSE.

Some entries whose results are on file:
{"substance_smiles": "Fc1ccc(-c2nc3ccc(-c4ccccc4)nn3c2-c2ccc(-c3ccccc3)cc2)cc1", "qualitative_label": "TRUE"}
{"substance_smiles": "Fc1ccc(-c2nc3ccc(N4CCOCC4)cn3c2-c2ccc(-c3ccccc3)cc2)cc1", "qualitative_label": "TRUE"}

Data request: I wonder whether c1ccc(-c2cccc(-c3cnc4ccc(-c5ccsc5)cn34)c2)cc1 has CC50 at 72 h below 60 µg/mL. Can you tell?
Data returned: FALSE

Data request: And then CC(C)(C)c1nc2ccc(-c3ccsc3)nn2c1-c1cccc(-c2ccccc2O)c1 , what is it?
Data returned: FALSE

Data request: Now try Fc1ccc(-c2nc3ccc(N4CCOCC4)nn3c2-c2cccc(-c3ccccc3)c2)cc1 .
Data returned: TRUE

====

Please respond with reported Ratio CC50/EC50 for every item in the list.
assay: Selectivity index, ratio of CC50 for Huh5-2 cells to EC50 for HCV genotype 1b infected in Huh5-2 cells; design: species or system Huh-5-2

Look over these answered cases.
{"substance_smiles": "COc1ccc(-c2nc3ccc(-c4ccsc4)cn3c2-c2cccc(-c3ccccc3)c2)cc1", "Ratio CC50/EC50": ">1.9"}
{"substance_smiles": "Fc1ccc(-c2nc3ccc(Sc4ccccc4)cn3c2-c2cccc(-c3ccccc3)c2)cc1", "Ratio CC50/EC50": ">1"}

Now turn to the next compound.
Data request: Field request: Ratio CC50/EC50 | item: COc1ccccc1-c1nc2ccc(-c3ccsc3)nn2c1-c1cccc(-c2ccccc2O)c1
Data returned: >43

====

assay: Cytotoxicity against MDBK cells assessed as growth inhibition after 3 days by MTS assay; assay type: cell-based, Bos taurus; conditions: cattle
For each record, write down the corresponding CC50 at 72 h.

Sample records with CC50 at 72 h:
{"substance_smiles": "COc1ccccc1-c1nc2ccc(-c3ccsc3)nn2c1-c1cccc(-c2cccc(O)c2)c1", "reported": "> 100 µg/mL"}
{"substance_smiles": "Fc1ccc(-c2nc3ccc(Sc4ccccc4)cn3c2-c2cccc(-c3ccccc3)c2)cc1", "reported": "> 100 µg/mL"}
{"substance_smiles": "CC(C)(C)c1nc2ccc(-c3ccsc3)cn2c1-c1cccc(-c2ccccc2)c1", "reported": "> 100 µg/mL"}
{"substance_smiles": "CN1CCN(c2ccc3nc(-c4ccc(F)cc4)c(-c4ccc(-c5ccccc5)cc4)n3n2)CC1", "reported": "> 50 µg/mL"}
{"substance_smiles": "COc1ccccc1-c1nc2ccc(-c3ccsc3)cn2c1-c1cccc(-c2ccccc2)c1", "reported": "> 100 µg/mL"}

Data request: Please look up its CC50 at 72 h: c1ccc(-c2cccc(-c3c(-c4ccsc4)nc4ccc(-c5ccsc5)cn34)c2)cc1
Data returned: > 100 µg/mL
